- Assay name: Efflux ratio of apparent permeability of the compound from basal to apical to apical to basal side of human Caco2 cells at 10 uM at pH 5.5 after 60 mins
- Assay type: ADME, cell-based
- Cond: Caco-2, pH 5.5
Quantity measured: efflux ratio at 1 h, 10 µM

1: CC(C)CN(C[C@@H](O)[C@H](Cc1ccccc1)NC(=O)OCc1cncs1)C(=O)c1ccc2nc(N)sc2c1
2: CC(C)CN(C[C@@H](O)[C@H](Cc1ccccc1)NC(=O)OCc1cncs1)C(=O)c1ccc2ncsc2c1
Task item: For the pair 1 and 2 , which entry has the numerically smaller recorded efflux ratio at 1 h, 10 µM? Return value: the label identifying the chosen record.
Reply: 2

---

- Target or system: Cytochrome P450 3A4 (Homo sapiens)
- Sequence (P08684 whole entry): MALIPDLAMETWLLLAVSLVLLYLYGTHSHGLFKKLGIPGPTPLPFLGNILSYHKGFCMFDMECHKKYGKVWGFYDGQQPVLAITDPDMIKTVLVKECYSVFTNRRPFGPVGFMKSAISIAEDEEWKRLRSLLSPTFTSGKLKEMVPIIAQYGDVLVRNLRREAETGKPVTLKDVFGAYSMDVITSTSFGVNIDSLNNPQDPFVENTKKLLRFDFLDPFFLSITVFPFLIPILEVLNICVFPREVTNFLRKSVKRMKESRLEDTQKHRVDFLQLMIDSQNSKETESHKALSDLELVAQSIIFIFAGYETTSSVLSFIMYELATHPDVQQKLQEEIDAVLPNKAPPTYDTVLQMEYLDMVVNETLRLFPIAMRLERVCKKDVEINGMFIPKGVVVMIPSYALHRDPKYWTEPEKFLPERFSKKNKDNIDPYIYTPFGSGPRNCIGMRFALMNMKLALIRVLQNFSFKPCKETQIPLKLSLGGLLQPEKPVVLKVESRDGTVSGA
pIC50: −log10 of the molar value.
Quantity measured: pIC50

A: O=C(N[C@@H](Cc1ccccc1)[C@H](O)CN(CC1CCCCC1)C(=O)c1ccc2nc(N3CCCC3)oc2c1)OCc1cncs1
B: CN(C[C@@H](O)[C@H](Cc1ccccc1)NC(=O)OCc1cncs1)C(=O)c1ccc2nc(N3CCCC3)oc2c1
Task item: Compare A and B by numeric pIC50 and name the larger one. Which one? Tell me its label.
Reply: A

A: O=C(N[C@@H](Cc1ccccc1)[C@H](O)CN(CCN1CCOCC1)C(=O)c1ccc2nc(N3CCCC3)oc2c1)OCc1cncs1
B: CCNc1nc2ccc(C(=O)N(CC(C)C)C[C@@H](O)[C@H](Cc3ccccc3)NC(=O)OCc3cncs3)cc2o1
Task item: Compare A and B and name the one whose reported pIC50 is smaller. State your choice using its label.
Reply: A
(A: 6.92, B: 7.55)

---

- Tested on: Human immunodeficiency virus 1
- Assay name: Antiviral activity against wild type HIV1 3B infected in human MT4 LTR-EGFP cells by EGFP reporter gene assay
- Assay type: functional, organism-based
- Cond: Human immunodeficiency virus 1, 3B
Quantity measured: EC50 (µM)

Here is how some compounds turned out for EC50.
CCN(C)c1nc2ccc(C(=O)N(CC(C)C)C[C@H](O)[C@H](Cc3ccccc3)NC(=O)OCc3cncs3)cc2o1
45
CC(C)CN(C[C@@H](O)[C@H](Cc1ccccc1)NC(=O)OCc1cncs1)C(=O)c1ccc2nc(N)sc2c1
76

I: CCNc1nc2ccc(C(=O)N(CC(C)C)C[C@@H](O)[C@H](Cc3ccccc3)NC(=O)OCc3cncs3)cc2o1
II: CCN(C)c1nc2ccc(C(=O)N(CC(C)C)C[C@@H](O)[C@H](Cc3ccccc3)NC(=O)OCc3cccnc3)cc2o1
Task item: Thinking about recorded EC50 values, which is higher, I or II ? Mark your selection by writing its label.
Reply: I

---

- Tested on: Human immunodeficiency virus 1
- Assay name: Antiviral activity against wild type HIV1 3B infected in human MT4 LTR-EGFP cells by EGFP reporter gene assay
- Format: functional, organism-based
- Cond: Human immunodeficiency virus 1, 3B
Quantity measured: EC50 (µM)

Consider the following illustrative entries.
CCN(C[C@@H](O)[C@H](Cc1ccccc1)NC(=O)OCc1cncs1)C(=O)c1ccc2nc(N3CCCC3)oc2c1
69
CCN(C)c1nc2ccc(C(=O)N(CC(C)C)C[C@@H](O)[C@H](Cc3ccccc3)NC(=O)OCc3ccncc3)cc2o1
49

1: O=C(N[C@@H](Cc1ccccc1)[C@H](O)CN(CCN1CCCC1)C(=O)c1ccc2nc(N3CCCC3)oc2c1)OCc1cncs1
2: O=C(N[C@@H](Cc1ccccc1)[C@H](O)CN(CC1CCC(F)(F)CC1)C(=O)c1ccc2nc(N3CCCC3)oc2c1)OCc1cncs1
3: CC(C)CN(C[C@@H](O)[C@H](Cc1ccccc1)NC(=O)OCc1cncs1)C(=O)c1ccc2ncsc2c1
4: CCN(C)c1nc2ccc(C(=O)N(CC(C)C)C[C@@H](O)[C@H](Cc3ccccc3)NC(=O)OCc3ccc4c(c3)OCO4)cc2o1
Task item: Please put the entries in order of rising EC50. Provide your answer as the labels ordered per the instruction.
Reply: 4, 2, 1, 3

---

- System: Human immunodeficiency virus 1
- Assay name: Antiviral activity against wild type HIV1 3B infected in human MT4 LTR-EGFP cells by EGFP reporter gene assay
- Assay type: functional, organism-based
- Cond: Human immunodeficiency virus 1, 3B
pEC50: −log10 of the molar value.
Reported pEC50 values for a set of compounds

Solved cases below.
CN(C)CCN(C[C@@H](O)[C@H](Cc1ccccc1)NC(=O)OCc1cncs1)C(=O)c1ccc2nc(N3CCCC3)oc2c1
< 4.00
CCN(C)c1nc2ccc(C(=O)N(CCN3CCCC3)C[C@@H](O)[C@H](Cc3ccccc3)NC(=O)OCc3cncs3)cc2o1
< 4.00
CCN(C)c1nc2ccc(C(=O)N(CC(C)C)CC(O)[C@H](Cc3cccnc3)NC(=O)OCc3cncs3)cc2o1 (single isomer, unassigned)
< 4.00

Task item: pEC50 for CCN(C)c1nc2ccc(C(=O)N(CC(C)C)C[C@@H](O)[C@H](Cc3ccccc3)NC(=O)OCc3cncs3)cc2o1 ?
Reply: 4.15

Task item: Try this compound next: CC(C)CN(C[C@@H](O)[C@H](Cc1ccccc1)NC(=O)OCc1cncs1)C(=O)c1ccc2nc(N3CCOCC3)oc2c1
Reply: < 4.00

---

- System: Human immunodeficiency virus 1
- Assay name: Antiviral activity against wild type HIV1 3B infected in human MT4 LTR-EGFP cells by EGFP reporter gene assay
- Assay type: functional, organism-based
- Cond: Human immunodeficiency virus 1, 3B
// EC50 lookup, one value per entry

CCN(C)c1nc2ccc(C(=O)N(CC3CCCCC3)C[C@@H](O)[C@H](Cc3ccccc3)NC(=O)OCc3cncs3)cc2o1
21 µM
CC(C)CN(C[C@@H](O)[C@H](Cc1ccccc1)NC(=O)OCc1cncs1)C(=O)c1ccc2nc(-c3ccncc3)oc2c1
> 100 µM

Now examine the next entry.
Task item: Given the entry CC(C)CN(C[C@@H](O)[C@H](Cc1ccccc1)NC(=O)OCc1cncs1)C(=O)c1ccc2nc(N)oc2c1 , report its measured EC50.
Reply: > 100 µM
